These entries and their values trace back to patent US20110217317A1.

target-of-assay: T1, Rhesus D antigen (human, UniProt Q02161 2-417)
T1 construct: whole, on cells; Presented on RhD-positive erythrocytes in all assays; also called RhD; RhD antigen
T1 sequence (looked up): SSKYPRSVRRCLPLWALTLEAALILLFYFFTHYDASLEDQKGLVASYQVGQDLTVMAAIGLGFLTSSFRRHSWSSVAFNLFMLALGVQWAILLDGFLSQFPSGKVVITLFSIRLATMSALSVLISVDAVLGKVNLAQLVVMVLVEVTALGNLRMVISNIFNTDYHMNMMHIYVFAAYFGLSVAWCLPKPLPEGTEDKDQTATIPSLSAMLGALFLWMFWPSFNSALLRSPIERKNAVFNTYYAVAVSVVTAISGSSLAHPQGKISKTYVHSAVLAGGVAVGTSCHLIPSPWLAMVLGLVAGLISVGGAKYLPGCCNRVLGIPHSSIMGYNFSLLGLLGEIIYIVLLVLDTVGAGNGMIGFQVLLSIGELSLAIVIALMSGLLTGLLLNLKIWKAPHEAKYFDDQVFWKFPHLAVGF
protocol-description: agglutination assay, Fab on RhD(+)/RhD(-) RBC mix
observed-property: binding result

# count of solved cases: 4
Consider the binder RhD294.119E10 (Fab, V domains shown, Tested as Fab (periplasmic extract)) VH: QVQLVESGGGVVQPGRSLRLSCAASGFSFSNYGMHWVRQAPGKGLEWVAVISYDGSEKYYADSVKGRFTISRDNSKKTLYLQMNSLRAEDTAMYYCKNKVGATRRAVVAVDIWGQGTMVTVSS VL: EIVLTQSPGTLSLSPRERATLSCRANQYVNSNHLAWYQQKPGQAPRLLLYGASRRATGIPDRFSGSGTGTDFTLIISRLEPEDFAVYFCQLYDHSRPMYTFGQGTKLEIKR and give its measured binding result.
binds

Which binding result is listed for RhD194.126G10 (Fab, V domains shown, Tested as Fab (periplasmic extract)) VH: QVTLKESGPVLVKPTETLTLTCTVSGFSLSNARMGVSWIRQPPGKALEWLAHIFSNDEKSYSTSLKSRLTISKDTSKSQVVLTMTNMDPVDTATYYCARMRLTMVRGVITYYYYSMDVWGQGTTVTVSS VL: DIQMTQSPSSLSASVGDRVTITCRASQSISTYLNWYQQKPGKAPKLLIYAASTLQSGVPSRFSGSGSGTHFTLTISSLQREDFATYYCQQTYRTPTWTFGQGTKVEIKR ?
binds

Reported binding result, binder RhD201.164H12 (Fab, V domains shown, Tested as Fab (periplasmic extract)) VH: QVQLVESGGGVVQPGRSLRLSCAASGFTFSSYAMHWVRQAPGKGLEWVAVISYDGSNKYYADSVKGRFTISRDNSKNTLYLQMNSLRAEDTAVYYCARESTLYSSSWYRRYYYYSMDVWGQGTTVTVSS VL: EIVLTQSPATLSVSPGERATLSCRASQSVTSNLAWYQQKPGQAPRLLIYGASTRATGVPARFSGSGSGTEFSLTISSLQSEDFAVYYCQQYNNWPPIFTFGPGTKLDIKR : ____
binds

Which binding result value belongs to RhD208.179B11 (Fab, V domains shown, Tested as Fab (periplasmic extract)) VH: EVQLVESGGGVVQPGRSLRLSCAASGFTFRTSAMHWVRQAPGKGLEWVAVIWYDGSNKYYADSVKGRFTISRDNSKNTLYLQMNSLRAEDTAVYYCAREMVSYSSSWYRRYYYYNMDVWGKGTTVTVSS VL: QAVVTQEPSLTVSPGGTVTLTCASSTGSVTSGYYPNWFQQKPGQAPRPLISGTSNKLSWTPARFSGSLLGGKAALTVSGVQPEDEAVYYCLLYYGVPQPVVFGGGTKLTVLG ?
binds

Then there is this binder:
Quick check: binding result of RhD295.119B11 (Fab, V domains shown, Tested as Fab (periplasmic extract)) VH: QVQLVESGGGLVQPGGSLRLSCVGSGFTFRSFDMNWVRQAPGKGLEWISYINSRGNTRYYVDSVKGRFTISRDNAKNSLYLQMNSLRAEDTAVYYCARDLYGDYDPKSYYYYGMDVWGQGTMVTVSS VL: EIVLTQSPGTLSLSPGERATLSCRASQSFSSGYLAWYQQKPGQAPRLLIYGASNRATGIPDRFSGSGSGTDFTLTISRLEPEDFAVYYCQHYGSSPPITFGQGTRLEIKR ?
binds
